Collected z-score values appear next to each entry.
assay: compound effects on multiple myeloma cell viability – MM1S, calcein-AM fluorescence, 48 h, basal, profiling panel (AID 1165); details: higher = more signal;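 also: viability of MM1S multiple myeloma cells under basal unstimulated conditions; test concentration not given here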
Respond with the number and no other words.

Please review the entries below; each comes with its answer.
compound	z-score
O=C1O[C@@H](c2ccccc2)[C@@H](c2ccccc2)N2[C@@H](c3ccc(OCCO)cc3)[C@]3(C(=O)Nc4ccc(C#CC5(O)CCCCCC5)cc43)[C@@H](C(=O)Nc3nc4ccccc4s3)[C@H]12	-1.64
COCCOC(=O)N1C(=O)[C@@]2(c3cc(C#CCC(C(=O)OC)C(=O)OC)ccc31)[C@H](C(=O)Nc1nc3ccccc3s1)[C@H]1C(=O)O[C@H](c3ccccc3)[C@H](c3ccccc3)N1[C@@H]2c1ccc(OCCO)cc1	-0.733
C=CC[C@@]1(C(=O)OC)N=C(c2ccc(OCCCO)cc2)O[C@@H]1c1ccccc1N=[N+]=[N-]	-0.473
COc1cc(OC)c(C(O)C2C=CC3C(=O)N(c4ccccc4)C(=O)C3N2Nc2ccc(C(C)C)cc2)cc1Br (stereo not given)	-0.534

# context switch: different compound, same z-score
Input: Which z-score value belongs to `C=CCOC(=O)[C@H]1[C@@H]2C(=O)O[C@@H](c3ccccc3)[C@@H](c3ccccc3)N2[C@@H](c2ccc(OCCOC(=O)[C@@H]3C[C@@H]4C(=O)N[C@@H](CCCCNC(C)=O)C(=O)N4[C@@H]3c3cccc(OCCO)c3)cc2)[C@]12C(=O)Nc1ccccc12` ?
Output: -0.0545

###

test: compound effects on hepatocellular carcinoma cell viability – HepG2, calcein-AM fluorescence, 48 h, basal, profiling panel (AID 1164); details: higher = more signal; also: test concentration not given here
Label 1.0 when z-score >= -1; otherwise 0.0.

Sample answers from the record:
molecule	category
O=C1C=C(c2ccccc2)C(=O)C2=C1CC([C@H]1Oc3ccccc3S(=O)(=O)N3CCC[C@@H]13)=CC2	0.0
C=CCNC(=O)[C@H]1[C@@H]2C(=O)O[C@@H](c3ccccc3)[C@@H](c3ccccc3)N2[C@@H](c2ccc(OCCO)cc2)[C@]12C(=O)Nc1ccccc12	1.0
COc1ccc([Si](C)(C)[C@@H]2[C@@H](CC(=O)N(CCO)Cc3ccccc3)O[C@]3(C(=O)N(Cc4ccc(I)cc4)c4ccccc43)[C@H]2C)cc1	0.0
CO[C@H]1O[C@H](CO)[C@@H](OC(=O)Nc2ccccc2-c2ccccc2)[C@H](OC(=O)Nc2ccccc2)[C@H]1OC(=O)Nc1ccccc1	0.0
COCCn1c(C(=O)N(C)C)cc2c1C[C@H]1CN(C(=O)c3ccccc3)[C@@](Cc3ccc(OC)cc3)(C(=O)OC)[C@@H]21	1.0

Input: Given COc1cc(C(O)C2C=CC3C(=O)N(c4ccccc4)C(=O)C3N2Nc2ccccc2)cc(OC)c1OC (centres undefined) , state whether its z-score is at least -1.
Output: 1.0

Input: # check: z-score of `O=C1c2ccccc2[C@@]2(Cc3ccccc3N(Cc3ccccc3)C2=O)[C@H](c2ccc(CO)cc2)N1Cc1ccccc1Cl` is greater than or equal to -1
Output: 1.0

Input: Textbook exercise: given the entry `CN(C)CCCC[C@@H]1NC(=O)[C@@H]2C[C@H](C(=O)NCCCCCCNC(=O)CS)[C@H](c3ccc(O)cc3)N2C1=O` , state whether its z-score is greater than or equal to -1.
Output: 1.0

Input: Does `O=C1N(Cc2ccccc2)c2ccccc2C[C@@]12COC(c1ccc(OCCCO)cc1)=N2` have a reported z-score of at least -1?
Output: 1.0

Input: API: above_or_equal(metric=z-score, cutoff=-1) for item `O=C1O[C@H](c2ccccc2)[C@H](c2ccccc2)N2[C@H]1[C@@H](C(=O)N1CCN(c3ncccn3)CC1)[C@]1(C(=O)Nc3ccc(C#CCCO)cc31)[C@H]2c1ccc(O)cc1`
Output: 1.0

Input: Identify whether the reported z-score of the following molecule is -1 or greater: `O=C(NC1CC1)[C@@H]1c2ccccc2C(=O)N(Cc2ccc(OC(F)(F)F)cc2)[C@H]1c1ccc(CO)cc1`
Output: 1.0

Input: Can `C=CCN1C(=O)[C@]2(O[C@H](CCn3cc([C@H](O)c4ccccc4)nn3)[C@@H]([Si](C)(C)c3ccc(OC)cc3)[C@@H]2C)c2cc(NC(=O)c3ccc(OC)cc3)ccc21` be said to have z-score at or above -1?
Output: 0.0

Input: State whether the measured z-score reaches -1, counting equality as reaching it, for `O=C1C[C@@](C(=O)O)(c2ccc([N+](=O)[O-])cc2)[C@@H](c2ccc(CO)cc2)N1C1CCCCC1`
Output: 1.0

###

biological target: Albumin (Bos taurus) (UniProt P02769); assay: compounds binding labelled BSA control protein – biochemical, small-molecule microarray, Alexa647 label, 635/667 nm fluorescence, artefact control for SMM control protein annotation, profiling panel (AID 1118); settings: BSA-A647 binding, fluorescence 635 nm, higher = more signal;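 also: score merges 667 nm emission intensity and signal-to-noise per printed compound spot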
Sequence (P02769 whole entry, looked up): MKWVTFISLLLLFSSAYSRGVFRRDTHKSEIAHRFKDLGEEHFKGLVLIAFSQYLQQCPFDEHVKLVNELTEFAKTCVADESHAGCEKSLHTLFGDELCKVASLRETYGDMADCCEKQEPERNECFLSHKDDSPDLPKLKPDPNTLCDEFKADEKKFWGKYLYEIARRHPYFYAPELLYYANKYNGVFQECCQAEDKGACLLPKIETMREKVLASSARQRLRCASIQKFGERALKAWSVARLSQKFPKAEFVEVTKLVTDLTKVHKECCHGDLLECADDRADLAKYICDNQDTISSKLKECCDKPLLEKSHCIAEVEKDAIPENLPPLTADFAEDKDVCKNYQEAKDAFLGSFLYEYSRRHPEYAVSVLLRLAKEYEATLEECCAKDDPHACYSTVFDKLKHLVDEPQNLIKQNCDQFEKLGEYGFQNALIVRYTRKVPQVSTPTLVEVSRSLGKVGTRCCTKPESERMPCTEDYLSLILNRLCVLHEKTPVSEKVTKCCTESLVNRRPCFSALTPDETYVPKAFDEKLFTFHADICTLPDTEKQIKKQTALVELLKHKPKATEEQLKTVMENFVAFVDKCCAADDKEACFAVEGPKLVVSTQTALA
measured metric: composite z-score

Use these answered entries as a reference point.
molecule	measured metric	result
CN(C)c1ccc(C(O)C2C=CC3C(=O)N(Cc4ccccc4)C(=O)C3N2n2cnnc2)cc1 (stereo unspecified)	composite z-score	-0.184
COC(=O)C(CC#Cc1ccc2c(c1)[C@]1(C(=O)N2)[C@H](C(=O)NC[C@H](O)c2ccccc2)[C@H]2C(=O)O[C@H](c3ccccc3)[C@H](c3ccccc3)N2[C@@H]1c1ccccc1OCCO)C(=O)OC	composite z-score	-0.119
COC(=O)C(CC#Cc1ccc2c(c1)[C@]1(C(=O)N2)[C@H](c2ccccc2OCCO)N2[C@H](c3ccccc3)[C@H](c3ccccc3)OC(=O)[C@H]2[C@@H]1C(=O)N1CCc2cc(OC)c(OC)cc2C1)C(=O)OC	composite z-score	0.185
O=C1C[C@@](C(=O)NC2CC2)(c2ccc([N+](=O)[O-])cc2)[C@@H](c2ccc(CO)cc2)N1C1CCCCC1	composite z-score	0.535
C=CC[C@@]1(C(=O)OC)N=C(c2ccc(OCCCO)cc2)O[C@@H]1c1ccccc1N=[N+]=[N-]	composite z-score	-1.11

Okay, next one:
Input: Requested read-out: composite z-score. Entry: `COC(=O)c1cccc([C@H]2OC(=CC(=O)OC(C)C)C[C@@H](c3cccc(C(=O)OC)c3)O2)c1`
Output: 0.937

###

Measured composite z-score, listed per entry for reference.
system: Chordin-like protein 2 (CHRDL2); assay: compounds binding chordin-like 2 – biochemical, small-molecule microarray, 635 nm fluorescence, primary screen (AID 1126); conditions: fluorescence 635 nm, higher = more signal;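 also: printed compound slides probed with Chrdl2 protein at 4 µg/mL for 1 h at 4 C; score merges 667 nm emission intensity with signal to noise over three replicate slides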

Input: Using the record for O=C1C2C=CC(C(O)c3ccc([N+](=O)[O-])cc3)N(Nc3ccccc3F)C2C(=O)N1c1ccccc1 (centres undefined) , report its composite z-score.
Output: -0.445

###

z-score: recorded values
assay: growth modulation of vineyard yeast isolate – strain RM11-1a, OD600, basal, 24 h, primary screen (AID 1177);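 also: cultures grown under basal conditions with no added stressor; test concentration not given here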; settings: S. cerevisiae RM11-1a growth, OD600, 24 h; higher = more signal, called active from +8 up or from −8 down
The source made the active and inactive calls.

molecule	measured metric	result
CC(C)[Si](C#CCCc1ccccc1)(O[C@H](c1ccccc1)c1cn(Cc2ccccc2)nn1)C(C)C	z-score	0.129 (inactive)
CCCNC(=O)[C@@]1(Sc2ccc(C)cc2)CC(=O)N(Cc2ccccc2Cl)[C@@H]1c1ccc(CO)cc1I	z-score	-0.641 (inactive)
C=CCOC(=O)[C@H]1[C@@H]2C(=O)O[C@@H](c3ccccc3)[C@@H](c3ccccc3)N2[C@@H](c2ccc(OCCOC(=O)[C@@H]3C[C@@H]4C(=O)N[C@@H](CCCCNC(C)=O)C(=O)N4[C@@H]3c3cccc(OCCO)c3)cc2)[C@]12C(=O)Nc1ccccc12	z-score	1.52 (inactive)

Input: z-score lookup needed for `CN(C)CCCCNC(=O)[C@H]1C[C@H]2C(=O)NCC(=O)N2[C@H]1c1ccc(O)cc1` , thanks.
Output: 1.56 (inactive)

Input: Would you kindly share the measured z-score for CCN(CC)c1ccc(N2CC=CC34O[C@@H]5C=CCCOC(=O)C5[C@H]3C(=O)N(C(C)CO)[C@@H]4C2=O)cc1 (some centres not stated) ?
Output: 0.126 (inactive)

Input: Tell me the measured z-score of `[N-]=[N+]=Nc1ccccc1[C@@H]1OC(c2ccc(OCCCO)cc2)=N[C@]1(Cc1ccccc1)C(=O)NCCN1CCOCC1` , please.
Output: -0.158 (inactive)

###

experiment: JC-1 mitochondrial signal, unstimulated HepG2 cells – cell-based, JC-1 fluorescence, 24 h, 100 nL compound, profiling panel (AID 1167); details: HepG2 mitochondrial potential, higher = more signal; also: test concentration not given here
# reported z-score; entries follow
The reply should be a number, written without any unit.

compound	z-score
O=C1O[C@@H](c2ccccc2)[C@@H](c2ccccc2)N2[C@@H](c3ccc(OCCO)cc3)[C@]3(C(=O)Nc4ccc(C#CC5(O)CCCCCC5)cc43)[C@@H](C(=O)O)[C@H]12	-0.969
O=C1O[C@H](c2ccccc2)[C@H](c2ccccc2)N2[C@H]1[C@@H](C(=O)O)[C@]1(C(=O)Nc3ccc(C#CCCO)cc31)[C@H]2c1ccc(OCCO)cc1	-0.76
COc1ccc([Si](C)(C)[C@@H]2[C@@H](CC(=O)N3CCC[C@H]3CO)O[C@]3(C(=O)N(Cc4cccc(N5CCCCC5=O)c4)c4ccccc43)[C@H]2C)cc1	-2.13
C=CCC(OC(C)=O)[C@@H]1[C@@H](N(Cc2cc3ccccc3o2)C(=O)Cc2ccc(OC)cc2)c2cc(OCCCO)ccc2N1C(=O)c1ccc2ccccc2n1 (some centres not stated)	2.31
Cc1ccc(S[C@]2(C(=O)NCc3ccccc3)CC(=O)N(Cc3ccccc3C(F)(F)F)[C@@H]2c2ccc(CO)cc2)cc1	0.779

Input: Name the reported z-score value associated with the compound `C=C(CCCC)/C(=C/C[C@H](OC(=O)c1ccncc1)c1ccccc1OCCO)c1cc(C(=O)OC)ccc1OC`
Output: 2.06

Origin of the recorded values: PubChem BioAssay
